log partition butyl acetate / HPLC water, unbuffered, traces of methanol / DMSO: recorded values
assayOverview: shake flask on a mixture of 185; loss from the water phase only; LC-Orbitrap peak areas
experimentalContext: room
Return type: number; implicit unit log10.

{"compound": "O=C(O)CCN(C1(C(=O)NO)CCCC1)S(=O)(=O)c1ccc(Oc2ccc(F)cc2)cc1", "measurementUnit": "log10", "measured": 1.182}
{"compound": "CC(C)(C)c1ccc(O)c(O)c1", "measurementUnit": "log10", "measured": -0.6544}
{"compound": "CN(C1CCCCC1)S(=O)(=O)c1ccccc1N", "measurementUnit": "log10", "measured": 0.997}

[in] # lookup: log partition butyl acetate / HPLC water, unbuffered, traces of methanol / DMSO of `Cc1cc2c3c(c1)C(c1ccccc1)=N[C@@H](NC(=O)c1ccncc1)C(=O)N3CC2`
[out] 2.844

[in] Please give the measured log partition butyl acetate / HPLC water, unbuffered, traces of methanol / DMSO for this compound: `CC(C)(C#N)Nc1nc(Cl)nc(NC2CC2)n1`
[out] 1.721

[in] Report log partition butyl acetate / HPLC water, unbuffered, traces of methanol / DMSO for `CCCCCCCCCCCCN1CCCCCC1=O` please.
[out] -1.099

[in] Given the compound `CCOC(=O)CC(=O)c1ccccc1` , what is its reported log partition butyl acetate / HPLC water, unbuffered, traces of methanol / DMSO?
[out] -0.1902
